molecular target: bovine spleen Cathepsin B (Bos taurus, UniProt P07688); construct: bovine spleen Cathepsin B (SigmaAldrich C6286, ≥10 units/mg protein); purchased SigmaAldrich C6286; host or cells: bovine spleen (tissue-derived); assay: Cathepsin B cleavage assay (UHPLC-HRMS Orbitrap analysis); assay type: biochemical; details: replicate R1, 120 min
Starred links: 1 amine or outer side, 2 acyl side, 3 side chain; linkers in the order of their positions; H or OH if unused. Non-standard residues stand in square brackets, D forms with d. Residues, ends and D or L forms follow the SMILES beside them. *: point of attachment. Paclitaxel(2'-OCO-DMEDA) = CC(=O)O[C@H]1C(=O)[C@@]2(C)[C@H]([C@H](OC(=O)c3ccccc3)[C@]3(O)C[C@H](OC(=O)[C@H](OC(=O)N(C)CCN(C)*)[C@@H](NC(=O)c4ccccc4)c4ccccc4)C(C)=C1C3(C)C)[C@]1(OC(C)=O)CO[C@@H]1C[C@@H]2O; Fmoc = O=C(OCC1c2ccccc2-c2ccccc21)*; PABC = O=C(OCc1ccc(N[*:1])cc1)[*:2]
% residual compound, % R1 listing for selected compounds.

Below: 3 compounds and their reported % residual compound, % R1.
compound="CC(=O)O[C@H]1C(=O)[C@@]2(C)[C@H]([C@H](OC(=O)c3ccccc3)[C@]3(O)C[C@H](OC(=O)[C@H](OC(=O)N(C)CCN(C)C(=O)OCc4ccc(NC(=O)CNC(=O)[C@H](CC(C)C)NC(=O)[C@H](Cc5ccccc5)NC(=O)CNC(=O)OCC5c6ccccc6-c6ccccc65)cc4)[C@@H](NC(=O)c4ccccc4)c4ccccc4)C(C)=C1C3(C)C)[C@]1(OC(C)=O)CO[C@@H]1C[C@@H]2O [Compound 2, Fmoc-GFLG-PABC-diamine-PTX] (Fmoc-GFLG[PABC]-{Paclitaxel(2'-OCO-DMEDA)})" value=99.27%
compound="CC(=O)O[C@H]1C(=O)[C@@]2(C)[C@H]([C@H](OC(=O)c3ccccc3)[C@]3(O)C[C@H](OC(=O)[C@H](OC(=O)N(C)CCN(C)C(=O)OCc4ccc(NC(=O)CNC(=O)[C@H](CC(C)C)NC(=O)[C@@H]5CCCN5C(=O)CNC(=O)OCC5c6ccccc6-c6ccccc65)cc4)[C@@H](NC(=O)c4ccccc4)c4ccccc4)C(C)=C1C3(C)C)[C@]1(OC(C)=O)CO[C@@H]1C[C@@H]2O [Compound 1, Fmoc-GPLG-PABC-diamine-PTX] (Fmoc-GPLG[PABC]-{Paclitaxel(2'-OCO-DMEDA)})" value=69.51%
compound=CC(=O)O[C@H]1C(=O)[C@@]2(C)[C@H]([C@H](OC(=O)c3ccccc3)[C@]3(O)C[C@H](OC(=O)[C@H](OC(=O)N(C)CCN(C)C(=O)OCc4ccc(NC(=O)[C@H](CCCNC(N)=O)NC(=O)[C@@H](NC(=O)OCC5c6ccccc6-c6ccccc65)C(C)C)cc4)[C@@H](NC(=O)c4ccccc4)c4ccccc4)C(C)=C1C3(C)C)[C@]1(OC(C)=O)CO[C@@H]1C[C@@H]2O value=76.58%

API: the following record is the query input.
Problem: Would you mind telling me what % residual compound, % R1 value was observed for CC(=O)O[C@H]1C(=O)[C@@]2(C)[C@H]([C@H](OC(=O)c3ccccc3)[C@]3(O)C[C@H](OC(=O)[C@H](OC(=O)N(C)CCN(C)C(=O)OCc4ccc(NC(=O)[C@H](C)NC(=O)[C@@H](NC(=O)OCC5c6ccccc6-c6ccccc65)C(C)C)cc4)[C@@H](NC(=O)c4ccccc4)c4ccccc4)C(C)=C1C3(C)C)[C@]1(OC(C)=O)CO[C@@H]1C[C@@H]2O ?
Solution: 61.83%
